Where do these numbers come from? They come from paper PMC9841533.

experiment.notes: Plasma pharmacokinetics in CD-1 mice
Format: in vivo, mouse
condition.summary: male, mouse, po, 5 mg/kg i.v. and 20 mg/kg p.o., read-out: oral bioavailability (F)

sample.smiles	bioavailability at 24 h (%)
C[C@@H](Nc1c(-c2c(F)cc(C#CCCN(C)C)cc2F)c(Cl)nc2ncnn12)C(C)(C)C	56

###

experiment.notes: Plasma pharmacokinetics in CD-1 mice
Assay type: in vivo, mouse
condition.summary: male, mouse, iv, i.v. 5 mg/kg

sample.smiles	endpoint.unit	clearance at 24 h
C[C@@H](Nc1c(-c2c(F)cc(C#CCCN(C)C)cc2F)c(Cl)nc2ncnn12)C(C)(C)C	mL/min/kg	8.2
